A collection of molecules and their measured z-score
# assay_method_text: S. pombe growth modifiers, basal conditions – strain 972, OD600, 24 h, no modulator, primary screen (AID 1090);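 also: basal condition with compound alone and no growth modifier present; test concentration not given here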
# condition_summary: S. pombe 972 growth, higher = more signal, called active from +8 up or from −8 down
measure_name: z-score

molecule: C=CCC(OC(C)=O)[C@@H]1[C@@H](N(Cc2cccc3ccccc23)C(=O)c2ccc(C)cc2)c2cc(OCCCO)ccc2N1C(=O)c1ccc2ccccc2c1 (some centres not stated)
measure_name: z-score
data_value: 0.148
--
molecule: COCCOC(=O)N1C(=O)[C@@]2(c3cc(C#CCC(C(=O)OC)C(=O)OC)ccc31)[C@H](C(=O)N1CCCCCCC1)[C@H]1C(=O)O[C@H](c3ccccc3)[C@H](c3ccccc3)N1[C@@H]2c1ccc(O)cc1
measure_name: z-score
data_value: -0.866
--
molecule: COCCOC(=O)N1C(=O)[C@@]2(c3cc(C#CCNC(N)=O)ccc31)[C@H](C(=O)N1CCCCCCC1)[C@H]1C(=O)O[C@H](c3ccccc3)[C@H](c3ccccc3)N1[C@@H]2c1ccc(OCCO)cc1
measure_name: z-score
data_value: 0.642
--
molecule: COC(=O)[C@@]1(Cc2ccc(OC)cc2)[C@H]2c3cc(C(=O)N(C)C)n(Cc4cc(F)c(F)c(F)c4)c3C[C@H]2CN1C(=O)c1ccccc1
measure_name: z-score
data_value: 0.129
--
molecule: O=C1CSC(c2cccc([N+](=O)[O-])c2)N1c1ccccc1 (configuration not stated)
measure_name: z-score
data_value: 0.616
--
molecule: COCCOC(=O)N1C(=O)[C@@]2(c3cc(C#CC4(O)CCCCCC4)ccc31)[C@H](C(=O)NC[C@H](O)c1ccccc1)[C@H]1C(=O)O[C@H](c3ccccc3)[C@H](c3ccccc3)N1[C@@H]2c1ccc(OCCO)cc1
measure_name: z-score
data_value: 0.814
--
molecule: COc1ccc([Si](C)(C)[C@@H]2[C@@H](CCO)O[C@]3(C(=O)N(Cc4cccc(N5C(=O)COc6ccccc65)c4)c4ccccc43)[C@H]2C)cc1
measure_name: z-score
data_value: 1.09

Origin of the recorded values: PubChem BioAssay
